Cited source: patent US20250115598A1

- MEASUREMENT_TARGET: human MLKL (full length) (Homo sapiens (Human))
- TEST: KINOMEscan binding assay, human MLKL (full length)
- ASSAY_CONTEXT: hMLKL, Table 25; read-out: MLKL (KD)
METRIC_NAME: Kd

[in] Identify the measured Kd of Cn1nc(-c2ccc(NS(=O)(=O)CC(F)(F)F)c(F)c2)c2c(N)ncc(-c3cnn(C4CCN(C(=O)[C@H]5C[C@H](Nc6cccc7c6C(=O)N(C6CCC(=O)NC6=O)C7=O)C5)CC4)c3)c21 (some centres unmarked) [Compound 1134] for human MLKL (full length) (Homo sapiens (Human)).
[out] < 0.01 µM

[in] Try this molecule too: Cc1ncsc1-c1ccc(CNC(=O)[C@@H]2C[C@@H](O)CN2C(=O)[C@@H](NC(=O)CCCCCOc2ccc(-c3cnc(N)c4c(-c5ccc(NS(=O)(=O)C(F)F)c(O[C@@H](C)c6ccc(F)cc6)c5)nn(C)c34)cn2)C(C)(C)C)cc1 [Compound 1050]
[out] 0.01 to 1 µM

[in] Follow-up entry: CCS(=O)(=O)Nc1ccc(-c2nn(C)c3c(-c4cnn(CCOCCOCC(=O)N[C@H](C(=O)N5C[C@H](O)C[C@H]5C(=O)NCc5ccc(-c6scnc6C)cc5)C(C)(C)C)c4)cnc(N)c23)cc1 [Compound 1019]
[out] 0.01 to 1 µM

[in] // repeat for CCS(=O)(=O)Nc1ccc(-c2n[nH]c3c(-c4cnn(CCCCCCC(=O)N[C@H](C(=O)N5C[C@H](O)C[C@H]5C(=O)NCc5ccc(-c6scnc6C)cc5)C(C)(C)C)c4)cnc(N)c23)cc1OCc1ccc(F)cc1 [Compound 1003] and report
[out] < 0.01 µM

[in] One more molecule: C[C@H](Oc1cc(-c2nn(C)c3c(-c4cnn(C5CCN(C(=O)[C@]6(F)C[C@@H](Nc7cccc8c7C(=O)N(C7CCC(=O)NC7=O)C8=O)C6)CC5)c4)cnc(N)c23)ccc1NS(=O)(=O)C(F)F)c1ccc(F)cc1 (some centres unmarked) [Compound 1111]
[out] 0.01 to 1 µM

[in] Repeat with Cc1ncsc1-c1ccc(CNC(=O)[C@@H]2C[C@@H](O)CN2C(=O)[C@@H](NC(=O)COCCCCn2cc(-c3cnc(N)c4c(-c5ccc(NS(=O)(=O)C(F)F)c(O[C@@H](C)c6ccc(F)cc6)c5)nn(C)c34)cn2)C(C)(C)C)cc1 [Compound 1056]
[out] 0.01 to 1 µM

[in] Now consider Cc1ncsc1-c1ccc(CNC(=O)[C@@H]2C[C@@H](O)CN2C(=O)[C@@H](NC(=O)CCN2CCC(n3cc(-c4cnc(N)c5c(-c6ccc(NS(=O)(=O)C(F)F)c(O[C@@H](C)c7ccc(F)cc7)c6)nn(C)c45)cn3)C2)C(C)(C)C)cc1 (some centres unmarked) [Compound 1012] and answer again.
[out] < 0.01 µM

[in] Same read-out for CN[C@@H](C)C(=O)N[C@H](C(=O)N1C[C@H](NC(=O)CCCCn2cc(-c3cnc(N)c4c(-c5ccc(NS(=O)(=O)C(F)F)c(O[C@@H](C)c6ccc(F)cc6)c5)nn(C)c34)cn2)C[C@H]1C(=O)Nc1c(F)cccc1F)C(C)(C)C [Compound 1080] ?
[out] < 0.01 µM

----------
- MEASUREMENT_TARGET: endogenous MLKL in U937 (Homo sapiens (Human))
- Sequence (Q8NB16 whole entry): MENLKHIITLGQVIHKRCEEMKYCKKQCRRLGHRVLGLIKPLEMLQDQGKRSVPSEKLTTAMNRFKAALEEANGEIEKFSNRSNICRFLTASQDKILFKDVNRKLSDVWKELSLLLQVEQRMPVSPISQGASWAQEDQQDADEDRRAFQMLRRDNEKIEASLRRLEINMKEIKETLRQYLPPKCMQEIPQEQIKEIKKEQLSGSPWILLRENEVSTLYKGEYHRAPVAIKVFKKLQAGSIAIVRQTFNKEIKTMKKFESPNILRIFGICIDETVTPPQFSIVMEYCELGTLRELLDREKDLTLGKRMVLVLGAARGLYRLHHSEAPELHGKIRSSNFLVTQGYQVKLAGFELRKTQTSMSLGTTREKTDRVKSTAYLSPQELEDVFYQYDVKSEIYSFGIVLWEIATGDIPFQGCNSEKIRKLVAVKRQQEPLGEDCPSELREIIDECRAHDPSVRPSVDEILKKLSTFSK
- TEST: Degradation assay: endogenous MLKL in U937 (western blot)
- ASSAY_CONTEXT: U937, 24 h incubation, read-out: Degradation of endogenous MLKL in U937 (DC50 cell-based assay)
METRIC_NAME: DC50

[in] Entry C[C@H](Oc1cc(-c2nn(C)c3c(-c4cnn(C5CCN(C(=O)C6CC7(CCN(c8cccc9c8C(=O)N(C8CCC(=O)NC8=O)C9=O)CC7)C6)CC5)c4)cnc(N)c23)ccc1NS(=O)(=O)C(F)F)c1ccc(F)cc1 (stereo partly shown) has what DC50?
[out] < 1000 nM

[in] // query: Cc1ncsc1-c1ccc(CNC(=O)[C@@H]2C[C@@H](O)CN2C(=O)[C@@H](NC(=O)CCCCCCn2cc(-c3cnc(N)c4c(-c5ccc(NS(=O)(=O)C(F)F)cc5)nn(C)c34)cn2)C(C)(C)C)cc1
[out] < 1000 nM

[in] Follow-up entry: Cc1ncsc1-c1ccc(CNC(=O)[C@@H]2C[C@@H](O)CN2C(=O)[C@@H](NC(=O)CCN2CC(n3cc(-c4cnc(N)c5c(-c6ccc(NS(=O)(=O)C(F)F)c(O[C@@H](C)c7ccc(F)cc7)c6)nn(C)c45)cn3)C2)C(C)(C)C)cc1
[out] 1000 to 10000 nM

[in] Now give it for Cc1ncsc1-c1ccc(C(COCC(=O)N2CCC(n3cc(-c4cnc(N)c5c(-c6ccc(NS(=O)(=O)C(F)F)c(O[C@@H](C)c7ccc(F)cc7)c6)nn(C)c45)cn3)CC2)NC(=O)[C@@H]2C[C@@H](O)CN2C(=O)[C@@H](NC(=O)C2(F)CC2)C(C)(C)C)cc1 (stereo partly shown) too.
[out] < 1000 nM

[in] Follow-up entry: CCS(=O)(=O)Nc1ccc(-c2nn(C)c3c(-c4cnn(CCCCCCCOc5cccc6c5C(=O)N(C5CCC(=O)NC5=O)C6=O)c4)cnc(N)c23)cc1F (stereo not shown)
[out] < 1000 nM

[in] Try this compound too: Cc1ncsc1-c1ccc(CNC(=O)[C@@H]2C[C@@H](O)CN2C(=O)[C@@H](NC(=O)CCCCCCn2cc(-c3cnc(N)c4c(-c5ccc(NS(=O)(=O)C(F)F)c(O[C@@H](C)c6ccc(F)cc6)c5)nn(C)c34)cn2)C(C)(C)C)cc1
[out] < 1000 nM

[in] What about this compound? CCS(=O)(=O)Nc1ccc(-c2n[nH]c3c(-c4cnn(CCOCCOCC(=O)N[C@H](C(=O)N5C[C@H](O)C[C@H]5C(=O)NCc5ccc(-c6scnc6C)cc5)C(C)(C)C)c4)cnc(N)c23)cc1OCc1ccc(F)cc1
[out] 1000 to 10000 nM

[in] Now the compound C[C@H](Oc1cc(-c2nn(C)c3c(-c4cnn(C5CCN(C(=O)[C@H]6C[C@@H]6C6CCN(c7cccc8c7C(=O)N(C7CCC(=O)NC7=O)C8=O)CC6)CC5)c4)cnc(N)c23)ccc1NS(=O)(=O)C(F)F)c1ccc(F)cc1 (stereo in doubt)
[out] < 1000 nM

[in] Likewise for CN[C@@H](C)C(=O)N[C@H](C(=O)N1C[C@H](NC(=O)CCCCCCn2cc(-c3cnc(N)c4c(-c5ccc(NS(=O)(=O)C(F)F)c(O[C@@H](C)c6ccc(F)cc6)c5)nn(C)c34)cn2)C[C@H]1C(=O)Nc1c(F)cccc1F)C(C)(C)C ?
[out] < 1000 nM

[in] Entry Cc1ncsc1-c1ccc(CNC(=O)[C@@H]2C[C@@H](O)CN2C(=O)[C@@H](NC(=O)CCCCCOc2ccc(-c3cnc(N)c4c(-c5ccc(NS(=O)(=O)C(F)F)c(O[C@@H](C)c6ccc(F)cc6)c5)nn(C)c34)cc2)C(C)(C)C)cc1 please
[out] < 1000 nM

[in] Further, for Cc1ncsc1-c1ccc(CNC(=O)[C@@H]2C[C@@H](O)CN2C(=O)[C@@H](NC(=O)C2(F)CC2)C(C)(C)C)c(OCCCCCCCCCn2cc(-c3cnc(N)c4c(-c5ccc(NS(=O)(=O)C(F)F)c(O[C@@H](C)c6ccc(F)cc6)c5)nn(C)c34)cn2)c1 ?
[out] 1000 to 10000 nM

[in] Ok, now Cn1nc(-c2ccc(NS(=O)(=O)C(F)F)c(F)c2)c2c(N)ncc(-c3cnn(C4CCN(C(=O)CCC5CCN(c6cccc7c6C(=O)N(C6CCC(=O)NC6=O)C7=O)CC5)CC4)c3)c21 (stereo not shown)
[out] < 1000 nM

[in] Try this compound too: C[C@H](Oc1cc(-c2nn(C)c3c(-c4cnn(C5CCN(C(=O)CC6CN(c7cccc8c7C(=O)N(C7CCC(=O)NC7=O)C8=O)CCO6)CC5)c4)cnc(N)c23)ccc1NS(=O)(=O)C(F)F)c1ccc(F)cc1 (stereo partly shown)
[out] < 1000 nM

[in] Field entry: Cc1ncsc1-c1ccc(CNC(=O)[C@@H]2C[C@@H](O)CN2C(=O)[C@@H](NC(=O)C2(F)CC2)C(C)(C)C)c(OCCCCCCn2cc(-c3cnc(N)c4c(-c5ccc(NS(=O)(=O)C(F)F)c(O[C@@H](C)c6ccc(F)cc6)c5)nn(C)c34)cn2)c1
[out] < 1000 nM

[in] Input Cc1ncsc1-c1ccc(CNC(=O)[C@@H]2C[C@@H](O)CN2C(=O)[C@@H](NC(=O)CCN2CCC(n3cc(-c4cnc(N)c5c(-c6ccc(NS(=O)(=O)C(F)F)c(O[C@@H](C)c7ccc(F)cc7)c6)nn(C)c45)cn3)CC2)C(C)(C)C)cc1
[out] 1000 to 10000 nM

[in] Now the same for C[C@H](Oc1cc(-c2nn(C)c3c(-c4cnn(C5CCN(Cc6ccc(CNc7cccc8c7C(=O)N(C7CCC(=O)NC7=O)C8=O)cc6)CC5)c4)cnc(N)c23)ccc1NS(=O)(=O)C(F)F)c1ccc(F)cc1 (stereo partly shown)
[out] < 1000 nM
